Data origin, for the record: patent US20090181948A1

Documented melting point across a set of compounds
RECORDED_ENDPOINT: melting point

compound="N#CCS(=O)(=O)C=C1N(CCCN2CCCCC2)CCN1CCCN1CCCCC1 [Compound 136]" reported_value="105 to 107 °C"
compound="CC1CCCN1CCCN1CCN(CCCN2CCCC2C)C1=C(C#N)C#N (stereo not drawn) [Compound 65]" reported_value="89 to 93 °C"
compound="CC(C)N1CCC(N2CCN(CCCN3CCC(=O)CC3)C2=C(C#N)C#N)CC1 [Compound 233]" reported_value="103 to 105 °C"
compound="CCN(CCCN1CCCCC1)C(=C(C#N)C#N)N1CCC(N2CCCCC2)CC1 [Compound 162]" reported_value="94 to 96 °C"
compound="C[C@H]1CCCN1CCCN1CCN(CCN2CCC[C@@H]2C)C1=C(C#N)C#N [Compound 56]" reported_value="70 to 72 °C"
compound="CC(C)N1CCC(N(C)C(=C(C#N)C#N)N2CCC(CN3CCCCC3)CC2)CC1 [Compound 179]" reported_value="197 to 198 °C"
compound="N#CC(C#N)=C(NCCCN1CCCCC1)N1CCC(N2CCCCC2)CC1 [Compound 160]" reported_value="117 to 118 °C"
compound="CN(CCCN1CCCCC1)C(=C(C#N)C#N)N1CCC(N2CCCCC2)CC1 [Compound 161]" reported_value="104 to 105 °C"
compound="CN(CCCN1CCOCC1)C(=C(C#N)C#N)N1CCC(N2CCCCC2)CC1 [Compound 166]" reported_value="104 to 106 °C"
compound="CC(C)N1CCC(N2CCN(CCCN3C[C@@H](C)O[C@@H](C)C3)C2=C(C#N)C#N)CC1 [Compound 234]" reported_value="117 to 118 °C"
compound="CC1CCCN1CCCN1CCN(CCCN2CCCC2C)C1=CS(=O)(=O)CC#N (stereo not drawn) [Compound 137]" reported_value="106 to 110 °C"
compound="N#CC(C#N)=C(NCCCN1CCCCC1)N1CCC(N2CCOCC2)CC1 [Compound 164]" reported_value="122 to 124 °C"
compound="N#CC(C#N)=C1N(CCN2CCCCC2)c2ccccc2N1CCN1CCCCC1 [Compound 192]" reported_value="127 to 128 °C"
compound="C[C@H]1CCCN1CCCN1CCN(CCCN2CCC[C@@H]2C)C1=C(C#N)C#N [Compound 115]" reported_value="79 to 80 °C"
compound="N#CC(C#N)=C(NCCCN1CCCCC1)N1CCC(N2CCCC2)CC1 [Compound 158]" reported_value="114 to 116 °C"
compound="N#CC(C#N)=C1N(CCCN2CCCCC2)CCN1C1CCN(C2CC2)CC1 [Compound 226]" reported_value="104 to 105 °C"
compound="CC1CCCN1CCCN1CCN(CCCN2CCC[C@@H]2CO)C1=C(C#N)C#N (stereo partly drawn) [Compound 119]" reported_value="57 to 59 °C"
compound="C[C@H]1CCCN1CCCN1CCN(CCN2CCCCC2)C1=C(C#N)C#N [Compound 195]" reported_value="70 to 71 °C"

###

# SYSTEM_TESTED: histamine H3 receptor (Rattus norvegicus)
# Construct: from tissue; host or cells: rat striatum (Sprague-Dawley, male, 6 weeks), membrane homogenate
# Sequence (Q9QYN8 whole entry): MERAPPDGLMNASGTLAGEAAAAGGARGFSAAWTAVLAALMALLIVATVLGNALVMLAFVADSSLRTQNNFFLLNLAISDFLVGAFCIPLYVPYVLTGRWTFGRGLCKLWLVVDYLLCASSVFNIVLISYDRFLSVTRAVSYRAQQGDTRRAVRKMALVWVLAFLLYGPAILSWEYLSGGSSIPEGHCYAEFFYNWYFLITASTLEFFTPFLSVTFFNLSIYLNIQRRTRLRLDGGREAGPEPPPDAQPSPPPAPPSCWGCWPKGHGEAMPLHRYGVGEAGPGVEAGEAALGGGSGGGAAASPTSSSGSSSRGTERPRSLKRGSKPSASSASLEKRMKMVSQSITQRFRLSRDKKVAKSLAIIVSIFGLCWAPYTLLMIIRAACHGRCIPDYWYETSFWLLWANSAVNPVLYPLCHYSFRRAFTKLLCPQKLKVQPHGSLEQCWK
# ASSAY_DETAILS: Histamine H3 receptor binding assay ([3H]-Nα-methylhistamine binding to rat striatum homogenate)
# MEASUREMENT_CONTEXT: 1 μmol/L test compound; [3H]-Nα-methylhistamine 1 nmol/L; striata of Sprague-Dawley male rats, 25° C., 1 hour; read-out: Inhibition ratio of [3H]-Nα-methylhistamine binding
Documented inhibition at 1 µM across a set of molecules
RECORDED_ENDPOINT: inhibition at 1 µM

molecule="CC1CCCCN1CCCN1CCN(CCCN2CCCCC2)C1=C(C#N)C#N (stereo not drawn) [Compound 98]" system_tested="histamine H3 receptor (Rattus norvegicus)" recorded_endpoint="inhibition at 1 µM" reported_value="≥ 80%"
molecule="CC1CCCN(CCCN2CCN(CCCN3CCCCC3)C2=C(C#N)C#N)C1 (stereo not drawn) [Compound 99]" system_tested="histamine H3 receptor (Rattus norvegicus)" recorded_endpoint="inhibition at 1 µM" reported_value="≥ 80%"
molecule="CC(C)N1CCC(CN2CCN(CCCN3CCCCC3)C2=C(C#N)C#N)CC1 [Compound 133]" system_tested="histamine H3 receptor (Rattus norvegicus)" recorded_endpoint="inhibition at 1 µM" reported_value="≥ 80%"
molecule="CC1CCCN1CCCN1C(=C(C#N)C#N)N(CCCN2CCCC2C)c2ccccc21 (stereo not drawn) [Compound 124]" system_tested="histamine H3 receptor (Rattus norvegicus)" recorded_endpoint="inhibition at 1 µM" reported_value="≥ 80%"
molecule="N#CC(C#N)=C1N(CCCN2CCC[C@@H]2CO)CCN1CCCN1CCC[C@@H]1CO [Compound 118]" system_tested="histamine H3 receptor (Rattus norvegicus)" recorded_endpoint="inhibition at 1 µM" reported_value="≥ 80%"
molecule="CC1CCCN(CCCN2CCN(CCCN3CCCC3C)C2=C(C#N)C#N)C1 (stereo not drawn) [Compound 112]" system_tested="histamine H3 receptor (Rattus norvegicus)" recorded_endpoint="inhibition at 1 µM" reported_value="≥ 80%"
molecule="N#CC(C#N)=C(NCCN1CCCCC1)N1CCC(N2CCCCC2)CC1 [Compound 143]" system_tested="histamine H3 receptor (Rattus norvegicus)" recorded_endpoint="inhibition at 1 µM" reported_value="≥ 80%"
molecule="CC1CCCN1CCCN1CCN(CCCN2CCCC2C)C1=C(C#N)C#N (stereo not drawn) [Compound 65]" system_tested="histamine H3 receptor (Rattus norvegicus)" recorded_endpoint="inhibition at 1 µM" reported_value="≥ 80%"
molecule="CC1CC(C)CN(CCCN2CCN(CCCN3CCCC3)C2=C(C#N)C#N)C1 (stereo not drawn) [Compound 96]" system_tested="histamine H3 receptor (Rattus norvegicus)" recorded_endpoint="inhibition at 1 µM" reported_value="≥ 80%"
